We begin with a simple list: items and their reported pKd.
Target: apo riboflavin binding protein from eggs (Gallus gallus)
Construct: obtained in homogeneous form from chicken egg white; from tissue; host or cells: chicken egg white
Experiment: Titration of antibiotic with egg riboflavin binding protein; dissociation constant
Parameters: species or system chicken
Details: general procedure of Example 1; read-out: Kd (anthracyclinones, Examples 8-10)
# pKd is unitless: minus log10 of the molar concentration; print number only

{"columns": ["compound", "pKd"],
 "data": [
  ["COc1cccc2c1C(=O)c1c(O)c3c(c(O)c1C2=O)C[C@@](O)(C(C)=O)CC3 [7-Deoxydaunomycinone]", 7.10]
]}

Read the next record carefully.
Reported pKd for apo riboflavin binding protein from eggs (Gallus gallus), given COc1cccc2c(O)c3c(c(O)c12)C(=O)C1=C(C[C@@](O)(C(C)=O)CC1)C3=O [Iso-7-deoxydaunomycinone] ? 7.70

---

Target: apo riboflavin binding protein from eggs (Gallus gallus)
Construct: obtained in homogeneous form from chicken egg white; from tissue; host or cells: chicken egg white
Sequence (P02752 18-238): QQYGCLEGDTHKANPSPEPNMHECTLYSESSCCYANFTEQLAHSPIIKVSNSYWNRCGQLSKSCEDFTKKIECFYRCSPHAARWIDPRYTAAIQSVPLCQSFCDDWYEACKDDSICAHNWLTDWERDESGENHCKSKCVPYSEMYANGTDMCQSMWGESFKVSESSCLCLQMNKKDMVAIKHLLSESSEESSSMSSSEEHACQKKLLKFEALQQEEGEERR
Test: Titration of antibiotic with egg riboflavin binding protein; dissociation constant
Design: species or system chicken
Conditions: spectrophotometric; solutions prepared and admixed as previously described; read-out: Kd (anthraquinones and anthraquinone-like molecules, Examples 11-15)
pKd: −log10 of the molar value.
observation type: pKd

{"columns": ["smiles record", "pKd"],
 "data": [
  ["O=C1c2c(O)ccc(O)c2C(=O)c2c(NCCNCCO)ccc(NCCNCCO)c21", 4.22],
  ["Cc1c(C(=O)O)c(O)cc2c1C(=O)c1c(O)c([C@@H]3O[C@H](CO)[C@@H](O)[C@H](O)[C@H]3O)c(O)c(O)c1C2=O", "< 3.60"]
]}

Read the next record carefully.
Fill in: pKd of CN(C)CCCN1c2ccccc2Sc2ccc(Cl)cc21 is ___ ~6.00

---

We begin with a simple list: items and their reported pKd.
Target: apo riboflavin binding protein from eggs (Gallus gallus, UniProt P02752)
Construct: obtained in homogeneous form from chicken egg white; from tissue; host or cells: chicken egg white
Test: Titration of antibiotic with egg riboflavin binding protein; dissociation constant
Design: species or system chicken
# pKd is unitless: minus log10 of the molar concentration; print number only

Fill in: pKd of COc1cccc2c1C(=O)c1c(O)c3c(c(O)c1C2=O)C[C@@](O)(C(=O)CO)C[C@@H]3O[C@H]1C[C@H](N)[C@H](O)[C@H](C)O1 is ___ 6.30

Same for CC[C@@]1(O)C[C@H](O)c2c(cc3c(c2O)C(=O)c2c(O)cccc2C3=O)[C@H]1C(=O)OC (relative stereo) [(±)-Aklavinone] 7.70

Same for COc1cccc2c1C(=O)c1c(O)c3c(c(O)c1C2=O)C[C@@](O)(C(C)=O)C[C@@H]3O[C@H]1C[C@H](N)[C@H](O)[C@H](C)O1 6.40

Same for CC[C@@]1(O)C[C@H](O[C@H]2C[C@H](N(C)C)[C@H](O[C@H]3C[C@H](O)[C@H](O[C@H]4CCC(=O)[C@H](C)O4)[C@H](C)O3)[C@H](C)O2)c2c(cc3c(c2O)C(=O)c2c(O)cccc2C3=O)[C@H]1C(=O)OC 6.00
